Tested on: Bacillus cereus
assay: Antibacterial activity against Bacillus cereus clinical isolate after 24 hr by microdilution test
Type: functional
result.type: MIC

Observe how each entry below is paired with its result.
O=C1N/C(=N\c2nc(-c3ccccc3)cs2)S/C1=C\c1ccccc1 | 6.8 µM
COc1ccc(OC)c(/C=C2\S/C(=N/c3nccs3)NC2=O)c1 | 232 µM
Cc1ccc(/C=C2\S/C(=N/c3nccs3)NC2=O)cc1 | 16.5 µM
O=C1N/C(=N\c2nccs2)S/C1=C\c1cc(Br)ccc1O | 9 µM
COc1ccccc1/C=C1\S/C(=N/c2nccs2)NC1=O | 31.5 µM

Data point: `Cc1csc(/N=C2\NC(=O)/C(=C/c3ccc(Cl)cc3)S2)n1` ; MIC = 30 µM

# MIC of `CN(C)c1ccc(/C=C2\S/C(=N/c3nccs3)NC2=O)cc1` = 7.6 µM

Form field MIC, entry `O=C1N/C(=N\c2nc(-c3ccccc3)cs2)S/C1=C\c1cccc(Cl)c1` : 25.2 µM

Reported MIC for `O=C1N/C(=N\c2nc(-c3ccccc3)cs2)S/C1=C\c1ccc(Cl)cc1` was 25 µM

According to the records, this compound `O=C1N/C(=N\c2nccs2)S/C1=C\c1c(Cl)cccc1Cl` displays MIC of 21.1 µM

compound `Cc1cnc(/N=C2\NC(=O)/C(=C/c3ccc([N+](=O)[O-])cc3)S2)s1` , MIC observed: 29 µM

Measured MIC of `O=C1N/C(=N\c2nccs2)S/C1=C\c1ccc(Cl)cc1Cl` : 28.1 µM
